Cited source for all entries: paper PMC11170107

system: rat primary cortical neurons; test: MEA hazard scoring in rat primary cortical neuronal cultures; details: rat primary neurons on MEA
experimental readout: hazard classification in the hazard scoring system

                                   compound  recorded_measurement
0           C[C@](N)(Cc1ccc(O)c(O)c1)C(=O)O           high hazard
1           O=C(CCCl)NCc1ccccc1 [Beclamide]           high hazard
2  Cc1ccc(-c2cc(C(F)(F)F)nn2-c2ccc(S(N)(=O)=O)cc2)cc1           high hazard

----------
settings: established from VigiBase, SIDER, Elsevier drug information and FDA prescribing information
experimental readout: Classification* (degree of seizure risk)

                                    compound  recorded_measurement
 0  FC(F)(F)c1ccc(CNc2ccc(Cc3c[nH]c4ncc(Cl)cc34)cn2)cn1                  Risk
 1  NC(CCP(=O)(O)O)C(=O)O (stereo not drawn)                  Risk
 2  COc1cc(C(C)=O)ccc1OCCCN1CCC(c2noc3cc(F)ccc23)CC1              Low risk
 3  CCN(CC)CCCC(C)Nc1c2ccc(Cl)cc2nc2ccc(OC)cc12 (stereo not drawn)               No risk
 4  Cc1ccc(C(=O)c2cc(O)c(O)c([N+](=O)[O-])c2)cc1               No risk
 5  O=C1Nc2ccc(Cl)cc2C(c2ccccc2Cl)=NC1O (stereo not drawn)                  Risk
 6  CNC1(c2ccccc2Cl)CCCCC1=O (stereo not drawn)              Low risk
 7  NC(=O)C[S+]([O-])C(c1ccccc1)c1ccccc1 (stereo not drawn)                  Risk
 8       Cc1cc2c(s1)Nc1ccccc1N=C2N1CCN(C)CC1               No risk
 9            [Br-].[K+] [Potassium bromide]               No risk
10                CCCCCCOc1nsnc1C1=CCCN(C)C1                  Risk
11  N=C(N)NC(=O)c1nc(Cl)c(N)nc1N [Amiloride]               No risk
12                                 Nc1ccncc1                  Risk
13  CC(C)C[C@H]1C(=O)N2CCC[C@H]2[C@]2(O)O[C@](NC(=O)[C@@H]3C=C4c5cccc6[nH]c(Br)c(c56)C[C@H]4N(C)C3)(C(C)C)C(=O)N12                  Risk
14  CNCCC(Oc1ccc(C(F)(F)F)cc1)c1ccccc1 (stereo not drawn)                  Risk
15  CCN(CC)C(=O)/C(C#N)=C/c1cc(O)c(O)c([N+](=O)[O-])c1                  Risk
16  COC(=O)C1=C(C)NC(C)=C([N+](=O)[O-])C1c1ccccc1C(F)(F)F (stereo not drawn)               No risk
17  C[N+](C)(C)CCOC(=O)CCC(=O)OCC[N+](C)(C)C               No risk
18  CN1[C@@H]2CC[C@H]1C[C@@H](OC(=O)c1c[nH]c3ccccc13)C2               No risk
19                            C1CCc2nnnn2CC1                  Risk
20   NC(=O)OCC(COC(N)=O)c1ccccc1 [Felbamate]              Low risk
21  CS(=O)(=O)c1ccc(C2=C(c3ccccc3)C(=O)OC2)cc1               No risk
22   COc1ccc(COc2ccc(Cc3cnc(N)nc3N)cc2OC)cc1                  Risk
23  O=C1c2ccccc2C(Cc2ccncc2)(Cc2ccncc2)c2ccccc21                  Risk
24  Cc1ccc(Nc2nccc(N(C)c3ccc4c(C)n(C)nc4c3)n2)cc1S(N)(=O)=O                  Risk
25                       NCC1(CC(=O)O)CCCCC1                  Risk
26  O=C1C[C@@H]2OCC=C3CN4CC[C@]56c7ccccc7N1[C@H]5[C@H]2[C@H]3C[C@H]46                  Risk
27  N[C@@]1(C(=O)O)CC[C@H]2[C@H](C(=O)O)[C@H]21                  Risk
28  Cc1ccc(COC(=O)N2CC[C@H](CNc3ncccn3)[C@H](F)C2)cc1                  Risk
29     CN1CCN(C2=Nc3ccccc3Oc3ccc(Cl)cc32)CC1                  Risk
30  N#Cc1ccccc1-c1cc(-c2ccccn2)cn(-c2ccccc2)c1=O              Low risk
31  CCCC(C)C1(CC)C(=O)NC(=O)NC1=O (stereo not drawn)                  Risk
32             Nc1nnc(-c2cccc(Cl)c2Cl)c(N)n1                  Risk
33  CN1C[C@H](C(=O)N[C@]2(C)O[C@@]3(O)[C@@H]4CCCN4C(=O)[C@H](Cc4ccccc4)N3C2=O)C=C2c3cccc4[nH]cc(c34)C[C@H]21                  Risk
34  CNC(=O)c1cc(Oc2ccc3nc(N[C@@H]4CCCC[C@H]4O)sc3c2)ccn1                  Risk
35                          NCc1cc(=O)[nH]o1                  Risk
36                     CCN1C(=O)OC(C)(C)C1=O                  Risk
37                            NN [Hydrazine]                  Risk
38           O=C(CCCl)NCc1ccccc1 [Beclamide]              Low risk

----------
system: rat primary cortical neurons; experiment: MEA hazard scoring in rat primary cortical neuronal cultures; settings: statistical tolerance interval of the ΔΔ% effect; One-sided interval
experimental readout: Mean.Firing.Rate..Hz. Upper.TI

                                   molecule            experimental_readout  recorded_measurement
0     Cn1c(=O)c2c(ncn2C)n(C)c1=O [Caffeine]  Mean.Firing.Rate..Hz. Upper.TI                 94.17
1  C[C@]12N[C@H](Cc3ccccc31)c1ccccc12 [Dizocilpine (MK-801), Dizocilpine]  Mean.Firing.Rate..Hz. Upper.TI                -66.07
2  CN(C)CCC=C1c2ccccc2CCc2ccccc21 [Amitriptyline]  Mean.Firing.Rate..Hz. Upper.TI                -25.19
3               NCc1cc(=O)[nH]o1 [Muscimol]  Mean.Firing.Rate..Hz. Upper.TI                -23.34

----------
test system: rat primary cortical neurons; experiment: MEA hazard scoring in rat primary cortical neuronal cultures; settings: statistical tolerance interval of the ΔΔ% effect; One-sided interval
experimental readout: Median.Mean.ISI Upper.TI

In [3]: df
Out[3]:
                                   molecule  recorded_measurement
0  C[C@]12N[C@H](Cc3ccccc31)c1ccccc12 [Dizocilpine (MK-801), Dizocilpine]                 23.07
1  CN(C)CCC=C1c2ccccc2CCc2ccccc21 [Amitriptyline]                  9.96
2               NCc1cc(=O)[nH]o1 [Muscimol]                 1.885
3     Cn1c(=O)c2c(ncn2C)n(C)c1=O [Caffeine]                 10.27

----------
details: established from VigiBase, SIDER, Elsevier drug information and FDA prescribing information
experimental readout: Classification* (degree of seizure risk)

>>> df
                                   compound  recorded_measurement
0  NS(=O)(=O)c1cc2c(cc1Cl)NC(C1CC3C=CC1C3)NS2(=O)=O (stereo not shown) [Cyclothiazide]                  Risk
1  CNS(=O)(=O)Cc1ccc2[nH]cc(CCN(C)C)c2c1 [Sumatriptan]                  Risk
2  O=C1CN=C(c2ccccc2Cl)c2cc([N+](=O)[O-])ccc2N1 [Clonazepam]                  Risk

----------
system: rat primary cortical neurons; experiment: MEA hazard scoring in rat primary cortical neuronal cultures; details: statistical tolerance interval of the ΔΔ% effect; One-sided interval
experimental readout: Area.Under.Cross.Correlation Upper.TI

In [3]: df
Out[3]:
              structure_smiles_string  recorded_measurement
0      CN(C)CCC=C1c2ccccc2CCc2ccccc21                -28.75
1          Cn1c(=O)c2c(ncn2C)n(C)c1=O                 111.5
2                    NCc1cc(=O)[nH]o1                -21.99
3  C[C@]12N[C@H](Cc3ccccc31)c1ccccc12                -47.25
